PROTOCOL: Aqueous solubility of compound in PBS at pH 7.4
Format: physicochemical
I'd be grateful if you could share measured solubility kinetic for these entries.
One number for each entry, in µM.

Solved entries:
{"MOLECULE": "O=C(N1CCC2(CC1)CC(Nc1ccccc1)CCO2)C1(c2ccccc2)CCCC1 (centres undefined)", "TEST RESULT": 20}
{"MOLECULE": "NCC1(O)CCOC2(CCN(C(=O)C3(c4ccccc4)CCCC3)CC2)C1 (centres undefined)", "TEST RESULT": 170}
{"MOLECULE": "O=C1CCC(=O)N1CC1CCOC2(CCN(C(=O)C3(c4ccccc4)CCCC3)CC2)C1 (centres undefined)", "TEST RESULT": 160}
{"MOLECULE": "O=C(N1CCC2(CC1)CC(CNCc1ccccc1)CCO2)C1(c2ccccc2)CCCC1 (centres undefined)", "TEST RESULT": 180}
{"MOLECULE": "CS(=O)(=O)NCC1CCOC2(CCN(C(=O)C3(c4ccccc4)CCOCC3)CC2)C1 (centres undefined)", "TEST RESULT": 190}
{"MOLECULE": "O=C(N1CCC2(CC1)CC(Oc1ccccn1)CCO2)C1(c2ccccc2)CCCC1 (centres undefined)", "TEST RESULT": 20}
{"MOLECULE": "CN(C)S(=O)(=O)N(C)CC1CCOC2(CCN(C(=O)C3(c4ccccc4)CCCC3)CC2)C1 (centres undefined)", "TEST RESULT": 160}
{"MOLECULE": "O=C(N1CCC2(CC1)CC(CN1CCCCS1(=O)=O)CCO2)C1(c2cc(F)cc(F)c2)CCCC1 (centres undefined)", "TEST RESULT": 4}
{"MOLECULE": "CCN(C)S(=O)(=O)NCC1CCOC2(CCN(C(=O)C3(c4ccccc4)CCCC3)CC2)C1 (centres undefined)", "TEST RESULT": 160}
{"MOLECULE": "O=C(NCC1CCOC2(CCN(C(=O)C3(c4ccccc4)CCCC3)CC2)C1)C1CCCCC1 (centres undefined)", "TEST RESULT": 130}

Each of the following entries comes with a recorded value; kindly state solubility kinetic for each.
1. CN(CC1CCOC2(CCN(C(=O)C3(c4ccccc4)CCCC3)CC2)C1)S(=O)(=O)CCCCl (centres undefined)
2. Cc1ccnc(NC2CCOC3(CCN(C(=O)C4(c5ccccc5)CCCC4)CC3)C2)c1 (centres undefined)
3. O=C(N1CCC2(CC1)CC(CN1CCCCS1(=O)=O)CCO2)C1(c2ccc(F)cc2)CCCC1 (centres undefined)
4. O=C(NCC1CCOC2(CCN(C(=O)C3(c4ccccc4)CCCC3)CC2)C1)c1ccccn1 (centres undefined)
5. CC(C)NC(=O)NCC1CCOC2(CCN(C(=O)C3(c4ccccc4)CCCC3)CC2)C1 (centres undefined)

**Result**
1. 50
2. 70
3. 190
4. 190
5. 180

---

I'd be grateful if you could share measured pIC50 for these entries.
TESTED ON: Polyprotein P1234 (Chikungunya virus (strain S27-African prototype) (CHIKV), UniProt Q8JUX6)
Sequence (Q8JUX6 536-1333 limits assumed): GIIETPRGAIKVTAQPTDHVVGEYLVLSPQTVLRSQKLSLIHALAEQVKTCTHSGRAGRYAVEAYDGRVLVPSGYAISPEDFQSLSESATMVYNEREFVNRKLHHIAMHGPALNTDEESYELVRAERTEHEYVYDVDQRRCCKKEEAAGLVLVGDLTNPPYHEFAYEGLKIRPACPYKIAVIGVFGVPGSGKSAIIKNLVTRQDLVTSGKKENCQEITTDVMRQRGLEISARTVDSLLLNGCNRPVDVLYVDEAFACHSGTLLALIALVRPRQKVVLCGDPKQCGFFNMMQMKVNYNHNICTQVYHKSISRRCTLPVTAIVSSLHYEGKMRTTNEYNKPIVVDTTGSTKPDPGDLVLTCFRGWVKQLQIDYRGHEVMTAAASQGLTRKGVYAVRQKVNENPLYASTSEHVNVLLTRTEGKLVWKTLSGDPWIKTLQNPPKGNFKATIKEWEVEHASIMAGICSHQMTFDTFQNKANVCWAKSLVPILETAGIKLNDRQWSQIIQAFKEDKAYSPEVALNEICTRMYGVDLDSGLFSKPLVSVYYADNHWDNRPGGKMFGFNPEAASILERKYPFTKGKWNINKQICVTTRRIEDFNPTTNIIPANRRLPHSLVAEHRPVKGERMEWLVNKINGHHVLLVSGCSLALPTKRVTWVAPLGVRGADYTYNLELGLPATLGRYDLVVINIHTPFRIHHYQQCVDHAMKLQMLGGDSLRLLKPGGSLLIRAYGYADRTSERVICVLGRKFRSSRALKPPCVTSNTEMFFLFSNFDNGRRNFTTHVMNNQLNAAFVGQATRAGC
PROTOCOL: Inhibition of N-terminal 6-His/SUMO-tagged CHIKV 181/25 nsP2 extracted from Escherichia coli Rosetta 2 preincubated for 30 mins followed by ATP addition measured after 1 hr by ADP-Glo assay
pIC50: −log10 of the molar value.

Solved entries:
{"COMPOUND": "CCCCCC(=O)NCC1CCOC2(CCN(C(=O)C3(c4ccccc4)CCCC3)CC2)C1 (centres undefined)", "pIC50": 5.20}
{"COMPOUND": "COc1ccc(C(=O)NCC2CCOC3(CCN(C(=O)C4(c5ccccc5)CCCC4)CC3)C2)cc1 (centres undefined)", "pIC50": 4.70}
{"COMPOUND": "CN(C)S(=O)(=O)NCC1CCOC2(CCN(C(=O)C3(c4cccc(C(F)(F)F)c4)CCCC3)CC2)C1 (centres undefined)", "pIC50": "< 4.40"}
{"COMPOUND": "O=C(NCC1CCOC2(CCN(C(=O)C3(c4ccccc4)CCCC3)CC2)C1)c1ccncc1 (centres undefined)", "pIC50": "< 4.40"}
{"COMPOUND": "O=C(N1CCC2(CC1)CC(Nc1ccccc1)CCO2)C1(c2ccccc2)CCCC1 (centres undefined)", "pIC50": 4.80}
{"COMPOUND": "CC(C)(C(=O)N1CCC2(CC1)CC(CNS(C)(=O)=O)CCO2)c1ccccc1 (centres undefined)", "pIC50": "< 4.40"}
{"COMPOUND": "CC(C)(C)NC(=O)NCC1CCOC2(CCN(C(=O)C3(c4ccccc4)CCCC3)CC2)C1 (centres undefined)", "pIC50": "< 4.40"}
{"COMPOUND": "O=C(N1CCC2(CC1)CC(Oc1ccccn1)CCO2)C1(c2ccccc2)CCCC1 (centres undefined)", "pIC50": "< 4.40"}

Each of the following entries comes with a recorded value; kindly state pIC50 for each.
1. COc1ccc(NC(=O)NCC2CCOC3(CCN(C(=O)C4(c5ccccc5)CCCC4)CC3)C2)cc1 (centres undefined)
2. NC(=O)NCC1CCOC2(CCN(C(=O)C3(c4ccccc4)CCCC3)CC2)C1 (centres undefined)
3. O=C(NCC1CCOC2(CCN(C(=O)C3(c4ccccc4)CCCC3)CC2)C1)C1CC1 (centres undefined)
4. Cc1ccnc(NC2CCOC3(CCN(C(=O)C4(c5ccccc5)CCCC4)CC3)C2)c1 (centres undefined)
5. CN(C)S(=O)(=O)NCC1CCOC2(CCN(C(=O)C3(c4ccccn4)CCCC3)CC2)C1 (centres undefined)

**Result**
1. 4.70
2. < 4.40
3. < 4.40
4. < 4.40
5. < 4.40

Each of the following entries comes with a recorded value; kindly state pIC50 for each.
1. CCN(C)S(=O)(=O)NCC1CCOC2(CCN(C(=O)C3(c4ccccc4)CCCC3)CC2)C1 (centres undefined)
2. CS(=O)(=O)NCC1CCOC2(CCN(C(=O)C3(c4ccccc4)CCCC3)CC2)C1 (centres undefined)
3. O=C1CCCN1CC1CCOC2(CCN(C(=O)C3(c4ccccc4)CCCC3)CC2)C1 (centres undefined)
4. O=C(NCC1CCOC2(CCN(C(=O)C3(c4ccccc4)CCCC3)CC2)C1)Nc1ccccc1 (centres undefined)

**Result**
1: 4.80; 2: < 4.40; 3: < 4.40; 4: 4.80

Each of the following entries comes with a recorded value; kindly state pIC50 for each.
1. O=C(N1CCC2(CC1)CC(CNS(=O)(=O)C1CC1)CCO2)C1(c2ccccc2)CCCC1 (centres undefined)
2. CN(CC1CCOC2(CCN(C(=O)C3(c4ccccc4)CCCC3)CC2)C1)C(=O)c1ccccn1 (centres undefined)

**Result**
[4.70, "< 4.40"]

---

I'd be grateful if you could share measured IC50 for these entries.
TESTED ON: Polyprotein P1234 (Chikungunya virus (strain S27-African prototype) (CHIKV), UniProt Q8JUX6)
PROTOCOL: Inhibition of N-terminal 6-His/SUMO-tagged CHIKV 181/25 nsP2 extracted from Escherichia coli Rosetta 2 preincubated for 30 mins followed by ATP addition measured after 1 hr by ADP-Glo assay
Answers are plain numbers, in µM.

Solved entries:
{"MOLECULE": "O=C(NCC1CCOC2(CCN(C(=O)C3(c4ccccc4)CCCC3)CC2)C1)c1cccnc1 (centres undefined)", "MEASURED ENDPOINT": "IC50", "UNIT INFO": "µM", "TEST RESULT": 12.6}
{"MOLECULE": "O=C(N1CCC2(CC1)CC(CNS(=O)(=O)CCCCl)CCO2)C1(c2ccccc2)CCCC1 (centres undefined)", "MEASURED ENDPOINT": "IC50", "UNIT INFO": "µM", "TEST RESULT": 2}
{"MOLECULE": "CN(CC1CCOC2(CCN(C(=O)C3(c4ccccc4)CCCC3)CC2)C1)S(C)(=O)=O (centres undefined)", "MEASURED ENDPOINT": "IC50", "UNIT INFO": "µM", "TEST RESULT": 3.16}
{"MOLECULE": "CN(C)S(=O)(=O)NCC1CCOC2(CCN(C(=O)C3(c4ccccc4Cl)CCCC3)CC2)C1 (centres undefined)", "MEASURED ENDPOINT": "IC50", "UNIT INFO": "µM", "TEST RESULT": 7.94}

**Query** Need IC50, item CN(CC1CCOC2(CCN(C(=O)C3(c4ccccc4)CCCC3)CC2)C1)S(=O)(=O)CCCCl (centres undefined)
**Result** 1

---

PROTOCOL: Aqueous solubility of compound in PBS at pH 7.4
Assay type: physicochemical
I'd be grateful if you could share measured solubility kinetic for these entries.
One number for each entry, in µM.

Solved entries:
{"MOLECULE": "CN(CC1CCOC2(CCN(C(=O)C3(c4ccccc4)CCCC3)CC2)C1)S(C)(=O)=O (stereo not given)", "solubility kinetic / µM": 180}
{"MOLECULE": "COc1ccc(C(=O)NCC2CCOC3(CCN(C(=O)C4(c5ccccc5)CCCC4)CC3)C2)cc1 (stereo not given)", "solubility kinetic / µM": 35}
{"MOLECULE": "CN(CC1CCOC2(CCN(C(=O)C3(c4ccccc4)CCCC3)CC2)C1)C(=O)c1ccccn1 (stereo not given)", "solubility kinetic / µM": 180}
{"MOLECULE": "CN(C)S(=O)(=O)NCC1CCOC2(CCN(C(=O)C3(c4ccccc4)CCCO3)CC2)C1 (stereo not given)", "solubility kinetic / µM": 200}

// moving on: another record for solubility kinetic
**Query** Need solubility kinetic, item O=C(NCC1CCOC2(CCN(C(=O)C3(c4ccccc4)CCCC3)CC2)C1)c1ccccc1 (stereo not given)
**Result** 70

Data provenance is ChEMBL document CHEMBL6178023.
